# Experimental protocol: Oil-solubility (log P)
# Format: physicochemical
Observation type: logP
Kindly provide the number alone.

For reference, reported logP for CC(C)(C)n1ncc(OCc2ccc(COCCF)cc2)c(Cl)c1=O [[^18F]BMS] stands at 1.42
